Hello, the source for this data is ChEMBL document CHEMBL4190348, in case you need it.

Reported pIC50 values follow for various compounds
Test: Cytotoxicity against human MS cells assessed as reduction in cell viability incubated for 72 hrs by MTT assay
Type: functional, cell-based
pIC50: −log10 of the molar value.

{"Structure notation": "COC(=O)[C@]12CC[C@@H](C(C)=O)[C@@H]1[C@H]1CC[C@@H]3[C@@](C)(CC#N)[C@H](C(C)(C)C(C)=O)CC[C@@]3(C)[C@]1(C)CC2", "pIC50": "< 4.00"}

Ask: Requested field: pIC50. Item: `C=C(C)[C@@H]1CC[C@]2(C(=O)OC)CC[C@]3(C)[C@H](CC[C@@H]4[C@@](C)(CC#N)[C@H](C(C)(C)C(C)=O)CC[C@]43C)[C@@H]12`
Result: < 4.00

Ask: Requested field: pIC50. Item: `CC1(C)CC[C@]23CC[C@]4(C)[C@H](CC[C@@H]5[C@@]6(C)C(C#N)=C(CO)C(C)(C)[C@@H]6CC[C@]54C)[C@H]2[C@H]1OC3`
Result: < 4.00

Ask: Requested field: pIC50. Item: `COC(=O)[C@]12CC[C@@H](C(C)=O)[C@@H]1[C@H]1CC[C@@H]3[C@@]4(C)C(C#N)=C(C)C(C)(C)[C@@H]4CC[C@@]3(C)[C@]1(C)CC2`
Result: < 4.00

Ask: Requested field: pIC50. Item: `CC1(C)CC[C@]23CC[C@]4(C)[C@H](CC[C@@H]5[C@@](C)(CC#N)[C@H](C(C)(C)C(=O)C(Br)Br)CC[C@]54C)[C@H]2[C@H]1OC3`
Result: < 4.00

Ask: Requested field: pIC50. Item: `CC1(C)CC[C@]23CC[C@]4(C)[C@H](CC[C@@H]5[C@@](C)(CC#N)[C@H](C(C)(C)C(=O)CBr)CC[C@]54C)[C@H]2[C@H]1OC3`
Result: < 4.00

Ask: Requested field: pIC50. Item: `CC(=O)C(C)(C)[C@@H]1CC[C@]2(C)[C@H](CC[C@@H]3[C@H]4[C@H]5OC[C@@]4(CCC5(C)C)CC[C@]32C)[C@@]1(C)CC#N`
Result: < 4.00
